# system: Tdp1 (Homo sapiens, UniProt Q9NUW8)
# Construct: His tag with thrombin site and linker (printed […] = X1; made in house; host or cells: E. coli BL21 (Novagen), plasmid pHN1910 in vector pET 15b
# Sequence (Q9NUW8 whole entry): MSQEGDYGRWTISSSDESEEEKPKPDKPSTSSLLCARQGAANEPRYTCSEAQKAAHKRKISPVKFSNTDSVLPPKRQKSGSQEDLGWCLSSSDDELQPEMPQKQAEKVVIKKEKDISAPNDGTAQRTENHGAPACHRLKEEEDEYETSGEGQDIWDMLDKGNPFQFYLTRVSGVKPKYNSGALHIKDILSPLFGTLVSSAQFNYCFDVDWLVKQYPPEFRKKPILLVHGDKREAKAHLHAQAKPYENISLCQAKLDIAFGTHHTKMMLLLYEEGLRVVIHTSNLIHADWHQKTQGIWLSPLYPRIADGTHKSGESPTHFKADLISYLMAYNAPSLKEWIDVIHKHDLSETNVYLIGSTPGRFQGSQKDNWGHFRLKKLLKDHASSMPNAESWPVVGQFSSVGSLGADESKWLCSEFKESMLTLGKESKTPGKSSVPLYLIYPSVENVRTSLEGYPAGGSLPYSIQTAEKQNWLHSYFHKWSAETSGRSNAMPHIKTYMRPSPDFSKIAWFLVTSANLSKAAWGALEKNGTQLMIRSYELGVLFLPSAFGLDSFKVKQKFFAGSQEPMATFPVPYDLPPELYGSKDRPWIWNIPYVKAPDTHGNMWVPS
# assay_protocol: Tdp1 gel assay (32P-labeled 14Y / D14Y / 14Y-CC substrates, denaturing PAGE, densitometry)
# Assay type: biochemical
# condition_info: IC50 ds14Y, double-stranded 14Y substrate
endpoint_name: IC50 (µM)
Please state the figure in µM; there is no need to write the unit.

Please fill in: IC50 reported for CN(C)C1C(O)=C(C(=O)NCN2CCN(C(=N)NC(=N)N)CC2)C(=O)C2(O)C(O)=C3C(=O)c4c(O)cccc4C(C)(O)C3CC12 (stereo not shown) [Compound (a)] = 19
